Target: Cytochrome P450 1A2 (Homo sapiens)
Assay: p450-cyp1a2 (AID 410)
Settings: recombinant CYP1A2, luciferin-ME demethylation, luminescence; series mostly up to 57 µM
Inconclusive results are not listed. Activity calls are given as the source filed them. Calls come from the whole dose curve.
Choose one outcome from this list and give only that: YES for active, NO for inactive

Recorded results for 3 compounds are shown here.
# Compound, Tgt, Group Label
records = [
    ("COc1cc2nc(N3CC=[N+](C(=O)c4ccco4)CC3)nc(N)c2cc1OC", "Cytochrome P450 1A2 (Homo sapiens)", "YES"),
    ("Nc1ccccc1C#Cc1ccccc1", "Cytochrome P450 1A2 (Homo sapiens)", "YES"),
    ("COc1cc(/C=C\\C(=O)N2CCCCC2=O)cc(OC)c1OC", "Cytochrome P450 1A2 (Homo sapiens)", "YES"),
]

(Q) What did this assay record as the result for COC(=O)[C@@]1(Cc2ccc(F)cc2)[C@H]2c3cc(C(=O)N4CCCC4)n(Cc4cccc5ccccc45)c3C[C@H]2CN1C(=O)c1ccccc1 ?
(A) YES

(Q) What did this assay record as the result for CC[C@H]1C2=C3C(CC[C@H]4C(OC)OC[C@](C)([C@@H]34)N(C(=O)OC(C)(C)C)C2)C(CO)C1CO (stereo partly drawn) ?
(A) YES

(Q) What did this assay record as the result for CC(=O)O[C@H]1CC[C@@]2(C)[C@@H](CC[C@@]3(C)[C@H]2C(=O)C=C2[C@H]4C[C@](C)(C(=O)OCCN5CCCCC5)CC[C@]4(C)CC[C@@]23C)C1(C)C ?
(A) NO

(Q) What did this assay record as the result for CC1(NC[C@@H](O)COc2cccc3[nH]ccc23)CCC(C(C)(C)NC(=O)CBr)CC1 (stereo partly drawn) ?
(A) NO

(Q) What did this assay record as the result for COC(=O)[C@@]1(Cc2ccc(F)cc2)[C@H]2c3cc(C(=O)N4CCCC4)n(CCCNc4ncc(C(F)(F)F)cc4Cl)c3C[C@H]2CN1C(=O)c1ccccc1 ?
(A) NO

====

Experiment: Cell Viability - HepG2 (AID 433);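 note: potency is the fitted concentration of half-maximal effect; cells exposed to compound for 40 hours; potency for ATP loss meaning cytotoxicity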
Conditions: qHTS
Records with an inconclusive call do not appear. Activity calls are given as the source filed them. Calls follow the shape of the full dose curve.
Property: Potency

Worked cases, answers included:
# Compound, Potency
records = [
    ("Nc1ccc2cc3ccccc3cc2c1", "> 92 µM (inactive)"),
    ("O=C=Nc1ccc(Cc2ccc(N=C=O)cc2)cc1", "> 92 µM (inactive)"),
    ("c1ccc2c(c1)-c1cccc3c1c-2cc1ccccc13", "> 92 µM (inactive)"),
    ("Cc1cccc(O)c1C", "> 92 µM (inactive)"),
    ("O=[N+]([O-])c1cc([N+](=O)[O-])c2ccc(S(=O)(=O)O)cc2c1O", "> 92 µM (inactive)"),
]

(Q) # get_value(readout='Potency', item= C/C=C1\C(=O)C[C@H]2[C@@H]3CCC4=CC(=O)CC[C@]4(C)[C@H]3CC[C@]12C )
(A) > 92 µM (inactive)

(Q) # get_value(readout='Potency', item= CC/C(=C(\c1ccccc1)c1ccc(OCCN(C)C)cc1)c1ccc(O)cc1 )
(A) 29.4 µM (active)

(Q) # get_value(readout='Potency', item= CCCCCCCC[N+](CCCCCCCC)(CCCCCCCC)CCCCCCCC )
(A) 4.92 µM (active)

(Q) # get_value(readout='Potency', item= CC(=O)Nc1ccc(C(=O)CCl)cc1 )
(A) 40.3 µM (active)

(Q) # get_value(readout='Potency', item= CCC(C)Nc1ccc(NC(C)CC)cc1 (stereo not given) )
(A) 13.5 µM (active)

====

Tested on: 3D7
Assay: qHTS profiling for inhibitors of Plasmodium falciparum proliferation (AID 504749); note: nearly all actives have a fitted effect of over 60% in size; note: potency is the fitted concentration of half-maximal effect
Conditions: P. falciparum in erythrocytes, SYBR Green DNA, 72 h; series mostly up to 28.7 µM
Records with an inconclusive call do not appear. Calls of active or inactive are those of the source. Calls come from the whole dose curve; as a rule, active = well fitted inhibition curve with a large enough effect; inconclusive = small, poorly fitted or top-dose-only effect; inactive = flat fitted curve, though single readings scatter.

# Molecule, Potency
measured = [
    ("CO/N=C(/C(=O)N[C@@H]1C(=O)N2C(C(=O)O)=C(CSc3nc(C)c(CC(=O)O)s3)CS[C@H]12)c1csc(N)n1", "inactive"),
    ("OCC1O[C@@H](O[C@@H]2C(CO)OC(O)C(O)C2O)C(O)C(O)C1O (some centres undefined)", "inactive"),
    ("COc1cc(/C=C2\\CCC/C(=C\\c3ccc(O)c(OC)c3)C2=O)ccc1O", "11.2 µM (active)"),
    ("CCCC(=O)O[C@]1(C(=O)COC(C)=O)CC[C@H]2C3C[C@H](F)C4=CC(=O)C=CC4(C)[C@@]3(F)[C@@H](O)CC21C (some centres undefined)", "inactive"),
]

====

Test system: PC49
Experiment: qHTS profiling for inhibitors of Plasmodium falciparum proliferation (AID 504749); note: nearly all actives have a fitted effect of over 60% in size
Conditions: P. falciparum in erythrocytes, SYBR Green DNA, 72 h; series mostly up to 28.7 µM
Experimental: NIH National Institute of Allergy and Infectious Diseases [NIAID] NIH Chemical Genomics Center [NCGC] […] Because mature erythrocytes lack DNA, only Plasmodium-derived DNA is detected. NCGC Assay Protocol Summary: The SYBR Green viability assay was adapted from a method described previously (Plouffe et al., 2008). […] The following morning, fluorescence intensity at 485(14) nm excitation and 535(25) nm emission wavelengths was measured on an EnVision (Perkin Elmer) plate reader. […]
Results filed as inconclusive are left out. Active and inactive are the calls of the source. The call rests on the fitted dose curve; in most records, active means well fitted inhibition curve with a large enough effect; inconclusive means small, poorly fitted or top-dose-only effect; inactive means flat fitted curve, though single readings scatter.
Choose one outcome from this list and give only that: active, inactive

Recorded results for 3 molecules are shown here.
# Molecule, Group Label
measured = [
    ("OC[C@@H]1O[C@](CO)(O[C@H]2O[C@H](CO)[C@@H](O)[C@H](O)[C@H]2O)[C@H](O)[C@H]1O", "inactive"),
    ("CCCCN1CC(O)C(O)C(O)C1CO (stereo not drawn)", "inactive"),
    ("CCN(CC)C(=O)Nc1ccc(OC[C@H](O)CNC(C)(C)C)c(C(C)=O)c1", "inactive"),
]

(Q) What did this assay record as the result for C[S+](C)CC[C@H](N)C(=O)O ?
(A) inactive

(Q) What did this assay record as the result for Cc1ccc(Nc2ncccc2C(=O)O)cc1C ?
(A) inactive

(Q) What did this assay record as the result for OC[C@@H](O)C(O[C@@H]1O[C@@H](CO)[C@H](O)[C@H](O)[C@H]1O)[C@H](O)[C@@H](O)CO (stereo partly drawn) ?
(A) inactive

(Q) What did this assay record as the result for COC(c1ccccc1)(c1ccccc1)C(Oc1nc(C)cc(C)n1)C(=O)O (stereo not drawn) ?
(A) inactive

(Q) What did this assay record as the result for OCC1O[C@H](Oc2ccc(O)cc2)C(O)C(O)C1O (stereo partly drawn) ?
(A) inactive

(Q) What did this assay record as the result for C=CCn1c(=O)n(C2OC(CO)C(O)C2O)c2nc(N)[nH]c(=O)c21 (stereo not drawn) ?
(A) inactive

(Q) What did this assay record as the result for CCC(C)C(N)C(=O)O (stereo not drawn) ?
(A) inactive

(Q) What did this assay record as the result for CC(=O)OCC(=O)[C@@]1(O)CCC2C3CCC4=CC(=O)C=CC4(C)C3C(O)C[C@]21C (stereo partly drawn) ?
(A) inactive

(Q) What did this assay record as the result for CC(=O)C1(O)Cc2c(O)c3c(c(O)c2C(OC2CC(N)C(O)C(C)O2)C1)C(=O)c1c(O)cccc1C3=O (stereo not drawn) ?
(A) active

(Q) What did this assay record as the result for CC1OC(OCC2OC(Oc3c(-c4ccc(OCCO)c(OCCO)c4)oc4cc(OCCO)cc(O)c4c3=O)C(O)C(O)C2O)[C@@H](O)C(O)C1O (stereo partly drawn) ?
(A) inactive

(Q) What did this assay record as the result for CC1(C)SC2[C@@H](N=CN3CCCCCC3)C(=O)N2[C@H]1C(=O)O (stereo partly drawn) ?
(A) inactive

(Q) What did this assay record as the result for CC(O)C1CCC2C3CCC4CC(O)CCC4(C)C3CCC12C (stereo not drawn) ?
(A) inactive

(Q) What did this assay record as the result for CC1(C)C2CC[C@]1(C)[C@@H](O)C2 ?
(A) inactive

(Q) What did this assay record as the result for CCOC(=O)C(CCc1ccccc1)NC(C)C(=O)N1Cc2cc(OC)c(OC)cc2CC1C(=O)O (stereo not drawn) ?
(A) active

(Q) What did this assay record as the result for C/C1=C2/[N-]C(C(CC(N)=O)[C@@]2(C)CCC(=O)NCC(C)OP(=O)([O-])O[C@H]2[C@@H](O)[C@@H](n3cnc4cc(C)c(C)cc43)O[C@@H]2CO)[C@]2(C)N=C(/C(C)=C3N=C(/C=C4N=C1C(CCC(N)=O)C\4(C)C)[C@@H](CCC(N)=O)[C@]\3(C)CC(N)=O)[C@@H](CCC(N)=O)[C@]2(C)CC(N)=O.CC(=O)O.[Co] (stereo partly drawn) ?
(A) inactive

====

System: CP215
Test: qHTS profiling for inhibitors of Plasmodium falciparum proliferation (AID 504749); note: nearly all actives have a fitted effect of over 60% in size
Conditions: P. falciparum in erythrocytes, SYBR Green DNA, 72 h; series mostly up to 28.7 µM
Inconclusive results are not listed. The source made the active and inactive calls. The call rests on the fitted dose curve; in most records, active means well fitted inhibition curve with a large enough effect; inconclusive means small, poorly fitted or top-dose-only effect; inactive means flat fitted curve, though single readings scatter.
Choose one outcome from this list and give only that: true (active), false (inactive)

Recorded results for 4 compounds are shown here.
# Compound, Tgt, Group Label
records = [
    ("C[C@H](CN1c2ccccc2Sc2cccnc21)N(C)C", "CP215", "true"),
    ("COc1ccc2cc1Oc1cc3c(cc1OC)CC[N+](C)(C)C3Cc1ccc(cc1)Oc1c(OC)c(OC)cc3c1C(C2)[N+](C)(C)CC3 (configuration not stated)", "CP215", "false"),
    ("CNC1CCc2cc(OC)c(OC)c(OC)c2-c2ccc(OC)c(=O)cc21 (configuration not stated)", "CP215", "false"),
    ("C[C@@H]1C(SC2Cn3cnc[n+]3C2)=C(C(=O)[O-])N2C(=O)[C@H]([C@@H](C)O)[C@@H]12 (some centres not stated)", "CP215", "false"),
]

(Q) What did this assay record as the result for NC(=O)c1ncn(C2OC(CO)C(O)C2O)c1N (configuration not stated) ?
(A) false

(Q) What did this assay record as the result for CC(=O)N[C@H]1[C@H](O[C@@H]2c3ccc(c(Cl)c3)Oc3cc4cc(c3O[C@@H]3O[C@H](CO)[C@@H](O)[C@H](O)C3C)Oc3ccc(cc3Cl)C[C@H]3NC(=O)[C@@H](N)c5ccc(O)c(c5)Oc5cc(O)cc(c5)[C@H](NC3=O)C(=O)N[C@H]4C(=O)N[C@H]3C(=O)N[C@@H]2C(=O)N[C@@H](C(=O)O)c2cc(O)cc(O[C@H]4O[C@H](CO)[C@@H](O)C(O)[C@@H]4O)c2-c2cc3ccc2O)O[C@H](CO)[C@@H](O)[C@@H]1O (some centres not stated) ?
(A) false

(Q) What did this assay record as the result for C=C1NC(=O)c2cc(CN(C)c3ccc(C(=O)N[C@@H](CCC(=O)O)C(=O)O)s3)ccc2N1 ?
(A) false
